Assay Name: Oral bioavailability in cynomolgus monkey at 3 mg/kg
Type: ADME, organism-based, Macaca fascicularis
Reported Conditions: in vivo
Reported Endpoint: bioavailability
Answer format: value, then unit.

Short answer for "CC(C)[C@]1(C)CC(=O)N(Cc2cc(F)cc(C(=O)N[C@@H](C)c3ccccc3)c2)C(=N)N1" : bioavailability was 9%
